Documented koff across a set of binders
Target: Biotinylated recombinant human CD3εδ (Acro Biosystems, CDD-H82W6) (human) (UniProt P07766)
Sequence (P07766 23-126, stated change not applied, chain 1 of 2): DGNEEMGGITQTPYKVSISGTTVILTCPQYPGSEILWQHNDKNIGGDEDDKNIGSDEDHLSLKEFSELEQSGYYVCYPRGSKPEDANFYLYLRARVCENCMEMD
Sequence (P04234 22-105, stated change not applied, chain 2 of 2, further chain): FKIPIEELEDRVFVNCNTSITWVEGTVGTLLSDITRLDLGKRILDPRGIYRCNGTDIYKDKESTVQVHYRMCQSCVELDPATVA
Assay: Octet BLI, biotinylated CD3εδ on streptavidin sensors, 1:1 model
Kindly answer with a numeric value in s⁻¹, unit omitted.

Field: example entries. Status: answers known.
Binder	koff (s⁻¹)
EGFR-CD3 DuetMab with anti-CD3 variant AZ Vκ 26 + AZ VH R79 (bispecific antibody, part only; not given: anti-EGFR arm, constant regions, V domains shown, not shown: another chain or arm of the molecule; a dimerising Fc or GST; small tags and cut ends) VH: EVQLVESGGALVKPGGSLRLSCAASGFTFTRAWMHWVRQAPGKQLEWVAQIKDRSQTYATYYAESVKGRFTISRDDSKNTLYLQMNSLKTEDTAVYYCRGVYYAVTPFDYWGQGTLVTVSS VL: DIVMTQSPLSLPVTPGEPASISCRSSQSLVHNTGNTYLSWYLQKPGQSPQSLIYKVSNRASGVPDRFSGSGSGTDFTLKISRVEAEDVGVYYCGQGTQAPFSFGSGTKVEIK	0.0233
EGFR-CD3 DuetMab with anti-CD3 variant AZ Vκ 29 + AZ VH E75 (bispecific antibody, part only; not given: anti-EGFR arm, constant regions, V domains shown, not shown: another chain or arm of the molecule; a dimerising Fc or GST; small tags and cut ends) VH: EVQLVESGGALVKPGGSLRLSCAASGFTFTEAWMHWVRQAPGKQLEWVAQIKDRSQTYATYYAESVKGRFTISRDDSKNTLYLQMNSLKTEDTAVYYCRGVYYANAPFDYWGQGTLVTVSS VL: DIVMTQSPLSLPVTPGEPASISCRSSQSLVHNTGNTYLSWYLQKPGQSPQSLIYKVSNRASGVPDRFSGSGSGTDFTLKISRVEAEDVGVYYCGQGTQFPFTFGSGTKVEIK	0.0404
EGFR-CD3 DuetMab with anti-CD3 variant AZ Vκ 17 + AZ VH SN75 (bispecific antibody, part only; not given: anti-EGFR arm, constant regions, V domains shown, not shown: another chain or arm of the molecule; a dimerising Fc or GST; small tags and cut ends) VH: EVQLVESGGALVKPGGSLRLSCAASGFTFSNAWMHWVRQAPGKQLEWVAQIKDRSQTYATYYAESVKGRFTISRDDSKNTLYLQMNSLKTEDTAVYYCRGVYYANAPFDYWGQGTLVTVSS VL: DIVMTQSPLSLPVTPGEPASISCRSSQSLVHNTGNTYLSWYLQKPGQSPQSLIYKVSNRASGVPDRFSGSGSGTDFTLKISRVEAEDVGVYYCGQGTQAPFTFGSGTKVEIK	0.00923

Challenge: Report koff for EGFR-CD3 DuetMab with anti-CD3 variant AZ Vκ 17 + AZ VH E79 (bispecific antibody, part only; not given: anti-EGFR arm, constant regions, V domains shown, not shown: another chain or arm of the molecule; a dimerising Fc or GST; small tags and cut ends) VH: EVQLVESGGALVKPGGSLRLSCAASGFTFTEAWMHWVRQAPGKQLEWVAQIKDRSQTYATYYAESVKGRFTISRDDSKNTLYLQMNSLKTEDTAVYYCRGVYYAVTPFDYWGQGTLVTVSS VL: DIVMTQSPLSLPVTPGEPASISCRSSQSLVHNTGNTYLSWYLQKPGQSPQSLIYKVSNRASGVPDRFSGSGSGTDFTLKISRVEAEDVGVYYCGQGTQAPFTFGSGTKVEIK please.
Response given: 0.0497

Challenge: Same thing, different binder: EGFR-CD3 DuetMab with anti-CD3 variant AZ Vκ 17 + AZ VH SN79 (bispecific antibody, part only; not given: anti-EGFR arm, constant regions, V domains shown, not shown: another chain or arm of the molecule; a dimerising Fc or GST; small tags and cut ends) VH: EVQLVESGGALVKPGGSLRLSCAASGFTFSNAWMHWVRQAPGKQLEWVAQIKDRSQTYATYYAESVKGRFTISRDDSKNTLYLQMNSLKTEDTAVYYCRGVYYAVTPFDYWGQGTLVTVSS VL: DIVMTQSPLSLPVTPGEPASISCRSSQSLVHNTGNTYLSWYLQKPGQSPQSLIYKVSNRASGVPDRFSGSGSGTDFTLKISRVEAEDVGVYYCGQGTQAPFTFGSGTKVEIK
Response given: 0.032

Challenge: Same thing, different binder: EGFR-CD3 DuetMab with anti-CD3 variant AZ Vκ 17 + AZ VH R75 (bispecific antibody, part only; not given: anti-EGFR arm, constant regions, V domains shown, not shown: another chain or arm of the molecule; a dimerising Fc or GST; small tags and cut ends) VH: EVQLVESGGALVKPGGSLRLSCAASGFTFTRAWMHWVRQAPGKQLEWVAQIKDRSQTYATYYAESVKGRFTISRDDSKNTLYLQMNSLKTEDTAVYYCRGVYYANAPFDYWGQGTLVTVSS VL: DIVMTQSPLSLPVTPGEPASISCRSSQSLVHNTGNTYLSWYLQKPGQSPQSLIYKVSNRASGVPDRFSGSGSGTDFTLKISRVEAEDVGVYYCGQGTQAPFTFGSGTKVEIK
Response given: 0.00644

Challenge: Same thing, different binder: EGFR-CD3 DuetMab with anti-CD3 variant AZ Vκ 26 + AZ VH R75 (bispecific antibody, part only; not given: anti-EGFR arm, constant regions, V domains shown, not shown: another chain or arm of the molecule; a dimerising Fc or GST; small tags and cut ends) VH: EVQLVESGGALVKPGGSLRLSCAASGFTFTRAWMHWVRQAPGKQLEWVAQIKDRSQTYATYYAESVKGRFTISRDDSKNTLYLQMNSLKTEDTAVYYCRGVYYANAPFDYWGQGTLVTVSS VL: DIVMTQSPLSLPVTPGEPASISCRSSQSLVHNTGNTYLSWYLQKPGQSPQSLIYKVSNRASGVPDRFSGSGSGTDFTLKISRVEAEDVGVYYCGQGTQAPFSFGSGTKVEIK
Response given: 0.00605

Challenge: Same thing, different binder: EGFR-CD3 DuetMab with anti-CD3 variant AZ Vκ 26 + AZ VH E75 (bispecific antibody, part only; not given: anti-EGFR arm, constant regions, V domains shown, not shown: another chain or arm of the molecule; a dimerising Fc or GST; small tags and cut ends) VH: EVQLVESGGALVKPGGSLRLSCAASGFTFTEAWMHWVRQAPGKQLEWVAQIKDRSQTYATYYAESVKGRFTISRDDSKNTLYLQMNSLKTEDTAVYYCRGVYYANAPFDYWGQGTLVTVSS VL: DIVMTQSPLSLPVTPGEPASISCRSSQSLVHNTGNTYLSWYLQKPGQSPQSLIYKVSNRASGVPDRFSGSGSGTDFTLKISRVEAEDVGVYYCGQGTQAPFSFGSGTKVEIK
Response given: 0.0172

Challenge: Same thing, different binder: EGFR-CD3 DuetMab with anti-CD3 variant AZ Vκ 17 + AZ VH E75 (bispecific antibody, part only; not given: anti-EGFR arm, constant regions, V domains shown, not shown: another chain or arm of the molecule; a dimerising Fc or GST; small tags and cut ends) VH: EVQLVESGGALVKPGGSLRLSCAASGFTFTEAWMHWVRQAPGKQLEWVAQIKDRSQTYATYYAESVKGRFTISRDDSKNTLYLQMNSLKTEDTAVYYCRGVYYANAPFDYWGQGTLVTVSS VL: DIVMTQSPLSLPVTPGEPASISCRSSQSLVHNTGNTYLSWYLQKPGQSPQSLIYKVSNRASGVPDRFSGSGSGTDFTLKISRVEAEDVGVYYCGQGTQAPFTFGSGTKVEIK
Response given: 0.0198

Challenge: Same thing, different binder: EGFR-CD3 DuetMab with anti-CD3 variant AZ Vκ 29 + AZ VH SN79 (bispecific antibody, part only; not given: anti-EGFR arm, constant regions, V domains shown, not shown: another chain or arm of the molecule; a dimerising Fc or GST; small tags and cut ends) VH: EVQLVESGGALVKPGGSLRLSCAASGFTFSNAWMHWVRQAPGKQLEWVAQIKDRSQTYATYYAESVKGRFTISRDDSKNTLYLQMNSLKTEDTAVYYCRGVYYAVTPFDYWGQGTLVTVSS VL: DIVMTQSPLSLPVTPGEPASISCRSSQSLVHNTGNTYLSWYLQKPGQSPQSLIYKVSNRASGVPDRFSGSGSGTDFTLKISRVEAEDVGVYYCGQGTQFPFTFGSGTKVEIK
Response given: 0.114
